# System: Human Pancreatic Carcinoma Cells (PANC-1)
# Assay Method Text: Tumor cell proliferation assay (MTT), PANC-1
# Format: cell-based
# Condition: concentration of 10^−5 mol/L, preliminary screening, 72 hours, read-out: Inhibition rate % PANC-1
Experimental Endpoint: inhibition at 10 µM (%)
Express it in %; write the number only.

Query block: Looking for the measured inhibition at 10 µM of Cc1[nH]c2c(c1C(=O)NCCO)CCC/C2=C1/C(=O)Nc2ccc(F)cc21 , can you help?
Result block: 0

Query block: For Cc1[nH]c2c(c1C(=O)NCCCN(C)C)CCC/C2=C1/C(=O)Nc2ccc(Cl)cc21 then?
Result block: 51.8

Query block: For Cc1ccc2c(c1)/C(=C1\CCCc3c1[nH]c(C)c3C(=O)NCC(O)CN(C)C1CCCCC1)C(=O)N2 (stereo not drawn) then?
Result block: 96.8

Query block: For Cc1[nH]c2c(c1C(=O)N1CCN(C)CC1)CCC/C2=C1/C(=O)Nc2ccccc21 then?
Result block: 0

Query block: For CCN(CC)CC(O)CNC(=O)c1c(C)[nH]c2c1CCC/C2=C1/C(=O)Nc2ccc(Cl)cc21 (stereo not drawn) then?
Result block: 98.1

Query block: For Cc1[nH]c2c(c1C(=O)NCC(O)CN1CCN(C)CC1)CCC/C2=C1/C(=O)Nc2ccc(F)cc21 (stereo not drawn) then?
Result block: 61.9

Query block: For Cc1[nH]c2c(c1C(=O)N1CCOCC1)CCC/C2=C1/C(=O)Nc2ccccc21 then?
Result block: 23.3

Query block: For Cc1[nH]c2c(c1C(=O)NCC(O)CN1CCN(C)CC1)CCC/C2=C1/C(=O)Nc2ccc(Cl)cc21 (stereo not drawn) then?
Result block: 21.8

Query block: For Cc1[nH]c2c(c1C(=O)NCC(O)CN1CCOCC1)CCC/C2=C1/C(=O)Nc2ccc(F)cc21 (stereo not drawn) then?
Result block: 34.3

Query block: For Cc1[nH]c2c(c1C(=O)NCCO)CCC/C2=C1/C(=O)Nc2ccccc21 then?
Result block: 5.66

Query block: For Cc1[nH]c2c(c1C(=O)NCC(O)CN1CCCCC1)CCC/C2=C1/C(=O)Nc2ccc(Cl)cc21 (stereo not drawn) then?
Result block: 53.6

Query block: For Cc1[nH]c2c(c1C(=O)NCC(O)CN1CCN(C)CC1)CCC/C2=C1/C(=O)Nc2ccccc21 (stereo not drawn) then?
Result block: 80.1

Query block: For Cc1[nH]c2c(c1C(=O)NCCN(C)C)CCC/C2=C1/C(=O)Nc2ccc(F)cc21 then?
Result block: 19.8

Query block: For Cc1[nH]c2c(c1C(=O)N1CCOCC1)CCC/C2=C1/C(=O)Nc2ccc(F)cc21 then?
Result block: 11.7

Query block: For Cc1[nH]c2c(c1C(=O)NCC(O)CN1CCOCC1)CCC/C2=C1/C(=O)Nc2ccc(Cl)cc21 (stereo not drawn) then?
Result block: 22.4

Query block: For Cc1[nH]c2c(c1C(=O)NCC(O)CN1CCCC1)CCC/C2=C1/C(=O)Nc2ccc(Cl)cc21 (stereo not drawn) then?
Result block: 98.1

Query block: For Cc1[nH]c2c(c1C(=O)N1CCN(C)CC1)CCC/C2=C1/C(=O)Nc2ccc(F)cc21 then?
Result block: 14

Query block: For Cc1[nH]c2c(c1C(=O)NCC(O)CN1CCCC1)CCC/C2=C1/C(=O)Nc2ccccc21 (stereo not drawn) then?
Result block: 97.4

====

# System: Human Colon Cancer Cell Line (HCT 116)
# Assay Method Text: Tumor cell proliferation assay (MTT), HCT116
# Assay type: cell-based
# Condition: concentration of 10^−5 mol/L, preliminary screening, 72 hours, read-out: Inhibition rate % HCT116
Experimental Endpoint: inhibition at 10 µM (%)
Express it in %; write the number only.

Query block: Looking for the measured inhibition at 10 µM of Cc1[nH]c2c(c1C(=O)N1CCN(C)CC1)CCC/C2=C1/C(=O)Nc2ccc(F)cc21 , can you help?
Result block: 22.1

Query block: For CCN(CC)CCNC(=O)c1c(C)[nH]c2c1CCC/C2=C1/C(=O)Nc2ccc(F)cc21 then?
Result block: 99.4

Query block: For CCN(CC)CCNC(=O)c1c(C)[nH]c2c1CCC/C2=C1/C(=O)Nc2ccccc21 then?
Result block: 99.9

Query block: For Cc1[nH]c2c(c1C(=O)N1CCOCC1)CCC/C2=C1/C(=O)Nc2ccccc21 then?
Result block: 36.5

Query block: For Cc1[nH]c2c(c1C(=O)NCCO)CCC/C2=C1/C(=O)Nc2ccc(F)cc21 then?
Result block: 61.9

Query block: For Cc1[nH]c2c(c1C(=O)NCC(O)CN1CCCCC1)CCC/C2=C1/C(=O)Nc2ccccc21 (centres unmarked) then?
Result block: 98.7

Query block: For Cc1[nH]c2c(c1C(=O)NCC(O)CN1CCCCC1)CCC/C2=C1/C(=O)Nc2ccc(F)cc21 (centres unmarked) then?
Result block: 99.9

Query block: For Cc1[nH]c2c(c1C(=O)NCCO)CCC/C2=C1/C(=O)Nc2ccccc21 then?
Result block: 79.1

====

# Tested on: Human Gastric Cancer Cell Line (BGC)
# Assay Method Text: Tumor cell proliferation assay (MTT), BGC
# Assay type: cell-based
# Condition: secondary screening, 48 hours
Assign labels as follows, please: 1 for IC50 below 4 µM; -1 for IC50 equal to or exceeding 4 µM.

Query block: In plain terms, does Cc1[nH]c2c(c1C(=O)NCC(O)CN1CCCCC1)CCC/C2=C1/C(=O)Nc2ccccc21 (centres unmarked) [I-73] come in under 4 µM for IC50?
Result block: -1

Query block: For Cc1[nH]c2c(c1C(=O)NCC(O)CN1CCOCC1)CCC/C2=C1/C(=O)Nc2ccc(F)cc21 (centres unmarked) [I-68] then?
Result block: -1

Query block: For Cc1[nH]c2c(c1C(=O)NCC(O)CN1CCN(C)CC1)CCC/C2=C1/C(=O)Nc2ccc(Cl)cc21 (centres unmarked) [I-78] then?
Result block: -1

Query block: For Cc1[nH]c2c(c1C(=O)NCCCN(C)C)CCC/C2=C1/C(=O)Nc2ccc(Cl)cc21 [I-7] then?
Result block: 1

Query block: For Cc1[nH]c2c(c1C(=O)NCC(O)CN1CCOCC1)CCC/C2=C1/C(=O)Nc2ccccc21 (centres unmarked) [I-67] then?
Result block: -1

Query block: For CCN(CC)CC(O)CNC(=O)c1c(C)[nH]c2c1CCC/C2=C1/C(=O)Nc2ccccc21 (centres unmarked) [I-63] then?
Result block: 1

Query block: For CCN(CC)CCNC(=O)c1c(C)[nH]c2c1CCC/C2=C1/C(=O)Nc2ccc(Cl)cc21 [I-3] then?
Result block: 1

Query block: For Cc1[nH]c2c(c1C(=O)NCC(O)CN1CCN(C)CC1)CCC/C2=C1/C(=O)Nc2ccccc21 (centres unmarked) [I-76] then?
Result block: 1

====

# System: Human Small Cell Lung Cancer Cell Line (NCI-H446)
# Assay Method Text: Tumor cell proliferation assay (MTT), NCI-H446
# Type: cell-based
# Condition: secondary screening, 48 hours
Task for the reader: assign each of the following compounds its reported IC50.
For clarity, give the value followed by its unit.

Query block: Looking for the measured IC50 of Cc1[nH]c2c(c1C(=O)NCC(O)CN1CCCC1)CCC/C2=C1/C(=O)Nc2ccccc21 (stereo not drawn) , can you help?
Result block: 2.64 µM

Query block: For Cc1[nH]c2c(c1C(=O)NCC(O)CN(C)C)CCC/C2=C1/C(=O)Nc2ccc(F)cc21 (stereo not drawn) then?
Result block: 3.03 µM

Query block: For Cc1[nH]c2c(c1C(=O)NCC(O)CN1CCCC1)CCC/C2=C1/C(=O)Nc2ccc(Cl)cc21 (stereo not drawn) then?
Result block: 2.98 µM

====

# System: Human Pancreatic Carcinoma Cell Line (BXPC-3)
# Assay Method Text: Tumor cell proliferation assay (MTT), BXPC-3
# Format: cell-based
# Condition: concentration of 10^−5 mol/L, preliminary screening, 72 hours, read-out: Inhibition rate % BXPC-3
Experimental Endpoint: inhibition at 10 µM (%)
Express it in %; write the number only.

Query block: Looking for the measured inhibition at 10 µM of Cc1[nH]c2c(c1C(=O)NCC(O)CN1CCCCC1)CCC/C2=C1/C(=O)Nc2ccc(F)cc21 (centres unmarked) [I-74] , can you help?
Result block: 32.1

Query block: For CCN(CC)CCNC(=O)c1c(C)[nH]c2c1CCC/C2=C1/C(=O)Nc2ccc(Cl)cc21 [I-3] then?
Result block: 96

Query block: For Cc1[nH]c2c(c1C(=O)N1CCN(C)CC1)CCC/C2=C1/C(=O)Nc2ccc(F)cc21 [I-14] then?
Result block: 68.3

Query block: For Cc1[nH]c2c(c1C(=O)NCCO)CCC/C2=C1/C(=O)Nc2ccccc21 [I-8] then?
Result block: 74.9

Query block: For Cc1[nH]c2c(c1C(=O)N1CCOCC1)CCC/C2=C1/C(=O)Nc2ccccc21 [I-12] then?
Result block: 29.5

Query block: For Cc1[nH]c2c(c1C(=O)N1CCN(C)CC1)CCC/C2=C1/C(=O)Nc2ccccc21 [I-13] then?
Result block: 42.4

Query block: For CCN(CC)CC(O)CNC(=O)c1c(C)[nH]c2c1CCC/C2=C1/C(=O)Nc2ccc(F)cc21 (centres unmarked) [I-64] then?
Result block: 98.5

Query block: For Cc1[nH]c2c(c1C(=O)NCC(O)CN1CCCCC1)CCC/C2=C1/C(=O)Nc2ccccc21 (centres unmarked) [I-73] then?
Result block: 90.2
